Record form. Attribute: pIC50. Fill in for each entry.
Molecular target: Solute carrier family 22 member 12 (Homo sapiens)
Assay: Inhibition of URAT1 in human RPTEC assessed as inhibition of [14C]uric acid uptake preincubated for 15 mins followed by [14C]uric acid addition and incubated under shaking condition for 2 hrs by scintillation counter method
Type: tissue-based
Numbers only, as −log10 of the molar value.

Worked cases, answers included:
{"smiles.string": "N#Cc1cc(C(=O)N2CSc3ccccc32)cc(C(F)(F)F)c1O", "pIC50": 4.88}
{"smiles.string": "CC(C)(C)c1cc(C(=O)N2CCc3ccccc32)cc(C#N)c1O", "pIC50": 4.50}
{"smiles.string": "CSc1cc(C(=O)N2CS(=O)(=O)c3ccccc32)cc(Cl)c1O", "pIC50": 5.24}
{"smiles.string": "C#Cc1cc(C(=O)N2CS(=O)(=O)c3ccccc32)cc(C#N)c1O", "pIC50": 5.49}
{"smiles.string": "N#Cc1cc(C(=O)N2CCc3ccccc32)cc(C#N)c1O", "pIC50": 4.08}
{"smiles.string": "N#Cc1cc(C(=O)N2CCc3ccccc32)ccc1O", "pIC50": 5.60}

The following compounds each have a reported value; give each one's pIC50.
1. CSc1cc(C(=O)N2CS(=O)(=O)c3ccccc32)cc(C#N)c1O
2. N#Cc1cc(C(=O)N2CCc3ccccc32)cc(C2CC2)c1O
3. N#Cc1cc(C(=O)N2CCc3ccccc32)cc(I)c1O

1. 5.15
2. 5.06
3. 5.28

---

Assay: AUC (0 to 24 hrs) in Cebus monkey at 30 mg/kg, po
Assay type: ADME, organism-based
Design: route oral, dose 30 mg/kg, time <=24
Conditions: in vivo
assay.metric: AUC(0-t)

The compound identified as CCc1oc2ccccc2c1C(=O)c1cc(Br)c(O)c(Br)c1 [BENZBROMARONE] registered its AUC(0-t) at 95200 ng·h/mL

---

Biological target: Solute carrier family 22 member 12 (Homo sapiens)
Sequence (Q96S37 whole entry): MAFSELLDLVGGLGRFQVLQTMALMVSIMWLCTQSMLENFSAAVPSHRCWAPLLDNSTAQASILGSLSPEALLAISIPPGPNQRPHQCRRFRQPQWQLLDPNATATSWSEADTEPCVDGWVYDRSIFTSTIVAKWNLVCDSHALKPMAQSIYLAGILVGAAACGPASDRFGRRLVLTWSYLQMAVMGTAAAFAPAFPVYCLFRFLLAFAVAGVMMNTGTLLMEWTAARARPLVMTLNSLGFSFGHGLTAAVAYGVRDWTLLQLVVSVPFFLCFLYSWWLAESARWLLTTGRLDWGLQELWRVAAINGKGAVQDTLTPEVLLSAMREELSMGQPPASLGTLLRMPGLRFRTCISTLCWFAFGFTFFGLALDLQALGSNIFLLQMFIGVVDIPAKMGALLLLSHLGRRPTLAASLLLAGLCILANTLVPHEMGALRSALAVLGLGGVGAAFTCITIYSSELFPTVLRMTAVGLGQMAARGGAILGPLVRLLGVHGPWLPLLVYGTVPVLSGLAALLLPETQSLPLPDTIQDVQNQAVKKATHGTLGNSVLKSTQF
Test: Inhibition of human URAT1 expressed in Xenopus laevis oocytes mediated [14C]uric acid uptake at 0.1 uM measured after 60 mins by liquid scintillation counter method relative to control
Type: cell-based
Settings: 1 h
assay.metric: inhibition at 0.1 µM (%)
One number for each entry, in %.

# batch size: 2; output inhibition at 0.1 µM per entry
1. N#Cc1cc(C(=O)N2CS(=O)(=O)c3ccccc32)cc(C2CC2)c1O
2. CCc1oc2ccccc2c1C(=O)c1cc(Br)c(O)c(Br)c1

[30, 37]

Kindly give each listed record's inhibition at 0.1 µM.
1. O=C(c1cc(Cl)c(O)c(Cl)c1)N1CS(=O)(=O)c2ccccc21
2. N#Cc1cc(C(=O)N2CS(=O)(=O)c3ccccc32)cc(Cl)c1O

[78, 29]

// batch mode: one inhibition at 0.1 µM value per listed entry
1. CSc1cc(C(=O)N2CS(=O)(=O)c3ccccc32)cc(C#N)c1O
2. N#Cc1cc(C(=O)N2CSc3ccccc32)cc(C(F)(F)F)c1O

1. 44
2. 71

Briefly, inhibition at 0.1 µM measured for "CCc1cc(C(=O)N2CS(=O)(=O)c3ccccc32)cc(C#N)c1O" : 36

All figures here come from ChEMBL document CHEMBL4725450.
